Abscess/Muscle ratio (target-to-nontarget ratio) listing for selected substances.
# Tested on: S. aureus-infected mice
# Set-up: species or system female Kunming mice
# conditionContext: mouse, in vivo
No end group written: not given here.
I'd appreciate a reply containing only the number, no unit.

Please review the following examples before continuing.
| substance | systemName | quantitativeResult |
| --- | --- | --- |
| [^99mTc]TcN-CN8UBI 29-41: ^99mTc complex of ligand CN8UBI 29-41 with the [^99mTc][Tc(V)N]^2+ core (TGRAKRRMQYNRR; also: CN8 chelator, position not given here, 99mTc complex with [99mTc][Tc(V)N]2+ core; UniProt P62861 103-115, looked up, fragment) | S. aureus-infected mice | 2.81 |
| [^99mTc]TcN-CN5UBI 29-41: ^99mTc complex of ligand CN5UBI 29-41 with the [^99mTc][Tc(V)N]^2+ core (TGRAKRRMQYNRR; also: CN5 chelator, position not given here, 99mTc complex with [99mTc][Tc(V)N]2+ core; UniProt P62861 103-115, looked up, fragment) | S. aureus-infected mice | 2.10 |
| [^99mTc]Tc-CN9UBI 29-41: ^99mTc complex of ligand CN9UBI 29-41 with the [^99mTc]Tc(I)^+ core (TGRAKRRMQYNRR; also: CN9 chelator, position not given here, 99mTc complex with [99mTc]Tc(I)+ core; UniProt P62861 103-115, looked up, fragment) | S. aureus-infected mice | 2.62 |
| [^99mTc]Tc(CO)3-CN9UBI 29-41: ^99mTc complex of ligand CN9UBI 29-41 with the [^99mTc][Tc(I)(CO)3(H2O)3]^+ core (TGRAKRRMQYNRR; also: CN9 chelator, position not given here, 99mTc(CO)3 complex; UniProt P62861 103-115, looked up, fragment) | S. aureus-infected mice | 2.60 |

query: Need Abscess/Muscle ratio (target-to-nontarget ratio), item [^99mTc]Tc(CO)3-CN7UBI 29-41: ^99mTc complex of ligand CN7UBI 29-41 with the [^99mTc][Tc(I)(CO)3(H2O)3]^+ core (TGRAKRRMQYNRR; also: CN7 chelator, position not given here, 99mTc(CO)3 complex; UniProt P62861 103-115, looked up, fragment)
result: 2.43

query: Need Abscess/Muscle ratio (target-to-nontarget ratio), item [^99mTc]Tc(CO)3-CN8UBI 29-41: ^99mTc complex of ligand CN8UBI 29-41 with the [^99mTc][Tc(I)(CO)3(H2O)3]^+ core (TGRAKRRMQYNRR; also: CN8 chelator, position not given here, 99mTc(CO)3 complex; UniProt P62861 103-115, looked up, fragment)
result: 2.42

query: Need Abscess/Muscle ratio (target-to-nontarget ratio), item [^99mTc]Tc-CN5UBI 29-41: ^99mTc complex of ligand CN5UBI 29-41 with the [^99mTc]Tc(I)^+ core (TGRAKRRMQYNRR; also: CN5 chelator, position not given here, 99mTc(I) complex; UniProt P62861 103-115, looked up, fragment)
result: 4.15

query: Need Abscess/Muscle ratio (target-to-nontarget ratio), item [^99mTc]TcN-CN6UBI 29-41: ^99mTc complex of ligand CN6UBI 29-41 with the [^99mTc][Tc(V)N]^2+ core (TGRAKRRMQYNRR; also: CN6 chelator, position not given here, 99mTc complex with [99mTc][Tc(V)N]2+ core; UniProt P62861 103-115, looked up, fragment)
result: 3.32

query: Need Abscess/Muscle ratio (target-to-nontarget ratio), item [^99mTc]Tc-CN8UBI 29-41: ^99mTc complex of ligand CN8UBI 29-41 with the [^99mTc]Tc(I)^+ core (TGRAKRRMQYNRR; also: CN8 chelator, position not given here, 99mTc complex with [99mTc]Tc(I)+ core; UniProt P62861 103-115, looked up, fragment)
result: 2.64
